The entries below come with measured self-cleavage values attached.
B1: HDV Ribozyme (parent)
chain: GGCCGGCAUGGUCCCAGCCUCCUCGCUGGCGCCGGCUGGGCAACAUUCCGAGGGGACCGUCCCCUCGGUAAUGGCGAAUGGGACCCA

variants of: B1; assay: self-cleavage, relative activity (ratio to wild type); higher = more cleavage; co-transcriptional
// return a plain number; no unit text

GGCCGGCAUGGUCCCCGCCUCCUCGCUGGCGCCGGCUGGGCAACAUUCCGAGGGGACCGUCCCCUCGGUAAUGGCGAAUUGGACCCA [A16C G80U] : 0.171
GGCCGGCAUGGUCCCAGCCUUCUCGCUGGCGCCGGCUGGGCAACAUUCCGAGGGGACCGUCCCCUCGGUAUUGGCGAAUGGGACCCA [C21U A71U] : 0.572

Given the entry GGCCGGCAUGGUCCCAGCCUCCUCGCUGGCGCCGGCUGGGCAACAUUCCGAAGGGACCGUCCCCUCGGUAAUGGCGAAUGGGAACCA [G52A C84A] , report its measured self-cleavage.
0.736

Given the entry GGCCGGCAUGGUCCCAGCCUCCUUGCUGGCGCCGGCUGGGCAACAUUACGAGGGGACCGUCCCCUCGGUAAUGGCGAAUGGGACCCA [C24U C48A] , report its measured self-cleavage.
0.692

Every entry's value here was drawn from the RNAGym collection of RNA variant scans (doi:10.7554/elife.80360).
